# Target of assay: Adrenergic β2 (Homo sapiens, UniProt P07550)
# Construct: Adherent H292 cells were removed from tissue culture flasks; endogenous in cells; host or cells: H292 cells
# Sequence (P07550 whole entry): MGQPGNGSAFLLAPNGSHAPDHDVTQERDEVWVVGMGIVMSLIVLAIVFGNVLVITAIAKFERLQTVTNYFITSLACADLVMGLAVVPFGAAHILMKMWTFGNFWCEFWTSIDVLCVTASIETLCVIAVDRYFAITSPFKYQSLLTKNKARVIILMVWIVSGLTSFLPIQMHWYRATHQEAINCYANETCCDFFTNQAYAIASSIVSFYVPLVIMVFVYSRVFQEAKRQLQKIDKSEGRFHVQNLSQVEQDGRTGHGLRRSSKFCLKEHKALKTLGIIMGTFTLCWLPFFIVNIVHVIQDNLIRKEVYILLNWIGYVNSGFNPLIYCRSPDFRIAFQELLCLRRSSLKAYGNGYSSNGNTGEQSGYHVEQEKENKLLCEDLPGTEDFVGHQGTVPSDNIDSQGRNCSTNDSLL
# Assay info: Adrenergic β2 mediated cAMP production in H292 cells (AlphaScreen cAMP detection)
# Format: cell-based
# Study conditions: cAMP production, 60 minutes at room temperature, 300 μM rolipram, read-out: β2 pEC50 (converted)
Structures can show the parent of a compound that is named as a salt.
Collected EC50 values appear next to each entry.
Please give a number only; it is taken to be in nM.

{"columns": ["Compound", "Target of assay", "EC50 (nM)"],
 "data": [
  ["CCCC[C@@H](C)N(CCNCCc1ccc(O)c2c1OCC(=O)N2)C(=O)CCNCCc1ccccc1Cl [Example 46, bis(trifluoroacetate)]", "Adrenergic β2 (Homo sapiens, UniProt P07550)", 1.26],
  ["O=C1COc2c(CCNCCN(C(=O)CCNCCc3ccc(F)c(F)c3)C3CCCCC3)ccc(O)c2N1 [Example 42, bis(trifluoroacetate)]", "Adrenergic β2 (Homo sapiens, UniProt P07550)", 2],
  ["O=C1COc2c(CCNCCN(C(=O)CCOCCc3ccc(F)cc3)C3CCCCC3)ccc(O)c2N1 [Example 75, trifluoroacetate]", "Adrenergic β2 (Homo sapiens, UniProt P07550)", 2.51],
  ["O=C1COc2c(CCNCCN(C(=O)CCOCCc3ccccc3F)C3CCCCC3)ccc(O)c2N1 [Example 76, trifluoroacetate]", "Adrenergic β2 (Homo sapiens, UniProt P07550)", 1.58],
  ["CCCC[C@@H](C)N(CCNCCc1ccc(O)c2c1OCC(=O)N2)C(=O)CCNCCc1ccc(Cl)s1 [Example 49, bis(trifluoroacetate)]", "Adrenergic β2 (Homo sapiens, UniProt P07550)", 2.51]
]}

Pending compound:
Prompt: # get_value(readout='EC50', item= O=C(CCNCCc1cccc(F)c1)N(CCNCCc1ccc(O)c2[nH]c(=O)ccc12)C1CCCCCC1 [Example 5, bis(trifluoroacetate)] )
Response: 7.94

====

# Target of assay: Adrenergic β2 (Homo sapiens, UniProt P07550)
# Construct: Adherent H292 cells were removed from tissue culture flasks; endogenous in cells; host or cells: H292 cells
# Assay info: Adrenergic β2 mediated cAMP production in H292 cells (AlphaScreen cAMP detection)
# Type: cell-based
# Study conditions: cAMP production, 60 minutes at room temperature, 300 μM rolipram, read-out: β2 pEC50 (converted)
Structures can show the parent of a compound that is named as a salt.
Endpoint name: EC50 (nM)
Please give a number only; it is taken to be in nM.

Use the examples below as a reference point.
{"columns": ["Compound", "Target of assay", "Reported"],
 "data": [
  ["O=C1COc2c(CCNCCN(C(=O)CCNCCc3ccc(F)c(Cl)c3)C3CCCCC3)ccc(O)c2N1 [Example 37, bis(trifluoroacetate)]", "Adrenergic β2 (Homo sapiens, UniProt P07550)", 2],
  ["CCCC[C@@H](C)N(CCNCCc1ccc(O)c2c1OCC(=O)N2)C(=O)CCNCCc1ccc(Cl)cc1 [Example 45, bis(trifluoroacetate)]", "Adrenergic β2 (Homo sapiens, UniProt P07550)", 5.01],
  ["O=C(CCOCCc1cc(F)cc(F)c1)N(CCNCCc1ccc(O)c2[nH]c(=O)ccc12)C1CCCCC1 [Example 78, trifluoroacetate]", "Adrenergic β2 (Homo sapiens, UniProt P07550)", 20],
  ["O=C1COc2c(CCNCCN(C(=O)CCNCCc3ccc(Cl)cc3)C3CCCCCC3)ccc(O)c2N1 [Example 63, bis(trifluoroacetate)]", "Adrenergic β2 (Homo sapiens, UniProt P07550)", 2],
  ["CCCC[C@@H](C)N(CCNCCc1ccc(O)c2c1OCC(=O)N2)C(=O)CCNCCc1cc(F)ccc1F [Example 54, bis(trifluoroacetate)]", "Adrenergic β2 (Homo sapiens, UniProt P07550)", 5.01],
  ["O=C(CCNCCc1ccc(Cl)cc1)N(CCNCCc1ccc(O)c2[nH]c(=O)ccc12)C1CCCCCC1 [Example 4, bis(trifluoroacetate)]", "Adrenergic β2 (Homo sapiens, UniProt P07550)", 20],
  ["O=C1COc2c(CCNCCN(C(=O)CCNCCc3ccc(C(=O)O)cc3)C3CCCCC3)ccc(O)c2N1 [Example 43, bis(trifluoroacetate)]", "Adrenergic β2 (Homo sapiens, UniProt P07550)", 31.6],
  ["O=C(CCOCCc1ccccc1)N(CCNCCc1ccc(O)c2[nH]c(=O)ccc12)C1CCCCC1", "Adrenergic β2 (Homo sapiens, UniProt P07550)", 12.6]
]}

Pending compound:
Prompt: # get_value(readout='EC50', item= O=C1COc2c(CCNCCN(C(=O)CCNCCc3cccc(Cl)c3)C3CCCCCC3)ccc(O)c2N1 [Example 68, bis(trifluoroacetate)] )
Response: 3.98
